From: ChEMBL document CHEMBL3045364

STUDY_SYSTEM: Estrogen receptor (Homo sapiens)
EXPERIMENT_NOTES: Displacement of [3H]E2 from Homo sapiens (human) recombinant ER-alpha by HAP binding assay
Activity calls are given as the source filed them. No cut-off for these calls is given here.
MEASURE_NAME: inhibition

COc1ccc2c(c1)OC1(CCC(c3ccccc3)CC1)CC2=O (stereo not drawn) = inactive
COc1cc(OC)c(/C=C2\COc3ccccc3C2=O)c(OC)c1 = inactive
O=C1/C(=C/c2ccc(O)cc2)COc2ccccc21 = inactive
